test summary: Polarity: interfacial tension toward water;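 further: polarity expressed as oil–water interfacial tension in mN/m, lower values meaning a more polar oil, with medium-polar lipids falling between 20 and 30 mN/m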
Assay type: physicochemical
recorded conditions: nonpolar lipids
measurement label: Polarity (mN/m)
Numeric answer only, unit mN/m assumed.

Below: 8 compounds and their reported Polarity.
CCCCCCCCCCCCCC(C)C; 43.8
CCCCCCCCOC(=O)CCCCCCCCCCCCCCC(C)C [Prisorine 2036, Octyl Isostearate]; 31.6
CCCCCCOC(=O)OCCCCCC [Dihexyl carbonate, Dihexyl Carbonate]; 30.9
CCCCCCCC(=O)OC(=O)CCCCCCC; 30.9
CCCCCCCCCCCCCCCCCC(C)C; 41.9
CCCCCCCC/C=C\CCCCCCCC(=O)OCCOCCOCC [Softcutol O, Ethoxydiglycol Oleate]; 40.5
CCCCC(CC)COC(=O)CCCCCC(C)C (stereo not drawn) [Dermol 89, 2-Ethylhexyl Isononanoate]; 31.0
CC(CCOC(=O)CC(C)CC(C)(C)C)CC(C)(C)C (stereo not drawn) [Dermol 99, Trimethylhexyl Isononanoate]; 31.1

Return Polarity for the following compound: O1[SiH2]O[SiH2]O[SiH2]O[SiH2]O[SiH2]1 (stereo not drawn) 32.3

Just for reference, patent US20070079447A1 is where these values come from.
